tested on: yxj-A6 riboswitch; experiment: cells; assay type: cell-based; details: Homo sapiens, HEK293; yxj-A6 riboswitch; Prestwick library compounds at 100 μM; HEK 293; read-out: Fold Induction of luciferase activity
Counter-ions that a name gives are not always drawn.
Assign labels as follows, please: condition met for fold induction at 100 µM below 7; condition not met for fold induction at 100 µM equal to or exceeding 7.

Example entries and their recorded answers appear below.
Cn1cnc([N+](=O)[O-])c1Sc1ncnc2nc[nH]c12
condition met
S=c1nc[nH]c2nc[nH]c12
condition not met
CN1CCC(=C2c3ccccc3Sc3ccccc32)CC1 [Pimethixene maleate]
condition met

Inquiry: Consider CC(CN1c2ccccc2Sc2ccccc21)N(C)C (centres unmarked) [Promethazine hydrochloride] . Does its fold induction at 100 µM lie strictly below 7?
Reply text: condition not met

Inquiry: Consider Nc1ccc(S(=O)(=O)Nc2cnc3ccccc3n2)cc1 [Sulfaquinoxaline sodium] . Does its fold induction at 100 µM lie strictly below 7?
Reply text: condition met

* * *

system: xpt-G17 riboswitch; assay: Luciferase reporter assay, xpt-G17 riboswitch, transfected HEK 293 cells; assay type: cell-based; conditions: Homo sapiens, HEK293, xpt-G17 riboswitch; Prestwick library compounds at 100 μM; HEK 293; preliminary screen
Where a name gives a salt, the structure may show the parent alone.
Assign labels as follows, please: 1 for fold induction at 100 µM below 5; -1 for fold induction at 100 µM equal to or exceeding 5.

Inquiry: Consider CC(=O)O[C@]1(C(C)=O)CC[C@H]2[C@@H]3C=C(Cl)C4=CC(=O)CC[C@]4(C)[C@H]3CC[C@@]21C [Chlormadinone acetate] . Does its fold induction at 100 µM lie strictly below 5?
Reply text: -1

Inquiry: Consider Nc1nc2nn[nH]c2c(=O)[nH]1 . Does its fold induction at 100 µM lie strictly below 5?
Reply text: -1

Inquiry: Consider COC1=C(OC)C(=O)C(CCCCCCCCCCO)=C(C)C1=O . Does its fold induction at 100 µM lie strictly below 5?
Reply text: 1

Inquiry: Consider CN(C)CCCN1c2ccccc2Sc2ccccc21 [Promazine hydrochloride] . Does its fold induction at 100 µM lie strictly below 5?
Reply text: 1

Inquiry: Consider CNc1ncnc2c1ncn2[C@@H]1O[C@H](CO)[C@@H](O)[C@H]1O . Does its fold induction at 100 µM lie strictly below 5?
Reply text: -1

Inquiry: Consider CC(CN1c2ccccc2Sc2ccccc21)N(C)C (stereo not shown) [Promethazine hydrochloride] . Does its fold induction at 100 µM lie strictly below 5?
Reply text: -1

* * *

test system: ydhl-G8 riboswitch; experiment: Luciferase reporter assay, ydhl-G8 riboswitch, transfected HEK 293 cells; format: cell-based; conditions: Homo sapiens, HEK293, read-out: Fold Induction of luciferase activity
Counter-ions that a name gives are not always drawn.
Listed here: items and their measured fold induction at 100 µM.
Note: the reply should be a number with no unit written.

Worked cases, fold induction at 100 µM given:
CCCCNc1ccc(C(=O)OCCN(C)C)cc1 [Tetracaine hydrochloride]
3.6
O=C(OCCOCCO)c1ccccc1Nc1cccc(C(F)(F)F)c1 [Etofenamate]
4.8
CNc1ncnc2c1ncn2[C@@H]1O[C@H](CO)[C@@H](O)[C@H]1O
10.7
NC(=O)c1ccc[n+]([C@@H]2O[C@H](COP(=O)([O-])OP(=O)(O)OC[C@H]3O[C@@H](n4cnc5c(N)ncnc54)[C@H](O)[C@@H]3O)[C@@H](O)[C@H]2O)c1 [Nadide]
11.7
CC(=O)O[C@]1(C(C)=O)CC[C@H]2[C@@H]3C=C(Cl)C4=CC(=O)CC[C@]4(C)[C@H]3CC[C@@]21C [Chlormadinone acetate]
10.4

Inquiry: Give measured fold induction at 100 µM for S=c1nc[nH]c2nc[nH]c12 (ydhl-G8 riboswitch).
Reply text: 3.6

Inquiry: Give measured fold induction at 100 µM for Nc1nc2nn[nH]c2c(=O)[nH]1 (ydhl-G8 riboswitch).
Reply text: 35.6

Inquiry: Give measured fold induction at 100 µM for Nc1ncnc2c1ncn2[C@@H]1O[C@H](COP(=O)(O)O)[C@@H](O)[C@H]1O.O [Adenosine 5′-monophosphate monohydrate] (ydhl-G8 riboswitch).
Reply text: 5.9

Inquiry: Give measured fold induction at 100 µM for [H]/N=C(/N)NS(=O)(=O)c1ccc(N)cc1 (ydhl-G8 riboswitch).
Reply text: 13.9

Inquiry: Give measured fold induction at 100 µM for O=C(CCCCCCC(=O)Nc1ccccc1)NO (ydhl-G8 riboswitch).
Reply text: 3

Origin of values: patent US11371077B2
